- system name: FAAH (Rattus norvegicus, UniProt P97612)
- Construct: Preparation of Rat Brain Membranes Preparations (FAAH Enzyme Solution); from tissue; host or cells: rat cerebrum (brain membrane preparation)
- protocol: Determination of FAAH inhibitory activity in rat (rat brain membrane preparations, [3H]-anandamide hydrolysis)
- Type: biochemical
- cond: rat brain membrane preparations; 100 nM test substance; read-out: FAAH Inhibition, Inhibition Rate at 100 nM
quantity: inhibition at 0.1 µM (%)
Numeric answer only, unit % assumed.

Record excerpt, results attached:
{"structure": "Cn1c(=O)n(C(=O)N2CCC2)c2nc(-c3cccc(OC(F)(F)F)c3)ncc21", "system name": "FAAH (Rattus norvegicus, UniProt P97612)", "inhibition at 0.1 µM (%)": 94}
{"structure": "CCCOCc1ncc2c(n1)n(C)c(=O)n2C(=O)N1CC(c2ccc(F)cc2)C1", "system name": "FAAH (Rattus norvegicus, UniProt P97612)", "inhibition at 0.1 µM (%)": 103}
{"structure": "CCOc1cccc(-c2ncc3c(n2)n(C(=O)N(C)C)c(=O)n3C)c1", "system name": "FAAH (Rattus norvegicus, UniProt P97612)", "inhibition at 0.1 µM (%)": 54}

*Q* Return the recorded inhibition at 0.1 µM value; entry: `CN(C)C(=O)n1c(=O)n(C)c2cnc(CCc3cccc(C4CC4)c3)nc21`
*A* 98

*Q* Quick one: give measured inhibition at 0.1 µM for `Cn1c(=O)n(C(=O)N2CCCC2)c2cnc(-c3ccnc(F)c3)nc21`
*A* 98

*Q* Give the reported inhibition at 0.1 µM for this compound. `Cn1c(=O)n(C(=O)N2CCN(c3ccc(F)cc3)CC2)c2cnc(-c3ccccc3)nc21`
*A* 101

*Q* Give reported inhibition at 0.1 µM value for `CCN(CC)C(=O)n1c(=O)n(C)c2nc(-c3cccc(OC)c3)ncc21`
*A* 41

*Q* In one line, give reported inhibition at 0.1 µM of the entry `CC(C)Oc1cccc(CCc2ncc3c(n2)n(C(=O)N(C)C)c(=O)n3C)c1` .
*A* 41

*Q* Retrieve inhibition at 0.1 µM measured for `CCc1ccc(CCc2ncc3c(n2)n(C(=O)N(C)C)c(=O)n3C)cc1` and print it.
*A* 101

*Q* Read off the recorded inhibition at 0.1 µM for `COc1cccc(-c2ncc3c(n2)n(C)c(=O)n3C(=O)N2CCC(Cc3ccccc3)CC2)c1`
*A* 93

*Q* Please look at this compound and report its inhibition at 0.1 µM: `Cn1c(=O)n(C(=O)N2CCC2)c2cnc(COc3ccccc3)nc21`
*A* 93

*Q* Answer with the recorded inhibition at 0.1 µM for the compound listed here: `COCc1ncc2c(n1)n(C)c(=O)n2C(=O)N1CC[C@@H](Oc2ccc(F)cc2)C1`
*A* 88

*Q* Fill in inhibition at 0.1 µM for record `CN(C)C(=O)n1c(=O)n(C)c2cnc(COc3cccc(OC(F)(F)F)c3)nc21`
*A* 112

*Q* Determine from records and report inhibition at 0.1 µM for `Cn1c(=O)n(C(=O)N2CCC2)c2nc(COc3ccc(F)cc3)ncc21`
*A* 84

*Q* Read off the recorded inhibition at 0.1 µM for `COc1cccc(-c2ncc3c(n2)n(C)c(=O)n3C(=O)N2CCN(CC(F)(F)F)CC2)c1`
*A* 100

*Q* Supply measured inhibition at 0.1 µM of `COCc1ncc2c(n1)n(C)c(=O)n2C(=O)N1CC[C@H](Oc2ccccc2Cl)C1` in your reply.
*A* 100

*Q* Please report the measured inhibition at 0.1 µM for `COc1cccc(-c2ncc3c(n2)n(C)c(=O)n3C(=O)N(C)CCC2CCCCC2)c1`
*A* 103

* * *

- system name: FAAH (Rattus norvegicus)
- Construct: Preparation of Rat Brain Membranes Preparations (FAAH Enzyme Solution); from tissue; host or cells: rat cerebrum (brain membrane preparation)
- protocol: Determination of FAAH inhibitory activity in rat (rat brain membrane preparations, [3H]-anandamide hydrolysis)
- Format: biochemical
- cond: rat brain membrane preparations; 100 nM test substance; read-out: FAAH Inhibition, Inhibition Rate at 100 nM
- Method: Determination of FAAH Inhibitory Activity in Rat The preparation of rat brain membranes preparations and the determination of FAAH inhibitory activity were carried out according to the Jonsson et al. method [Br. J. Pharmacol., 133, 1263 (2001)]. (1) Preparation of Rat Brain Membranes Preparations (FAAH Enzyme Solution) The cerebrum was extracted from rats and was freeze-stored at −80° C. […]
Each entry below lists one item and its recorded inhibition at 0.1 µM value.
Expressed in %, but write only the number.

Previously resolved entries follow.
{"structure": "Cn1c(=O)n(C(=O)N2CCCC2)c2nc(Cc3cc(F)cc(F)c3)ncc21", "system name": "FAAH (Rattus norvegicus)", "quantity": "inhibition at 0.1 µM", "units symbol": "%", "value measured": 100}
{"structure": "Cn1c(=O)n(C(=O)N2CCCC2)c2cnc(C3CCCCC3)nc21", "system name": "FAAH (Rattus norvegicus)", "quantity": "inhibition at 0.1 µM", "units symbol": "%", "value measured": 80}
{"structure": "Cc1ccc(-c2ncc3c(n2)n(C)c(=O)n3C(=O)N2CCCC2)cc1F", "system name": "FAAH (Rattus norvegicus)", "quantity": "inhibition at 0.1 µM", "units symbol": "%", "value measured": 103}
{"structure": "CN(C)C(=O)n1c(=O)n(C)c2cnc(CCc3cccc(C(F)F)c3)nc21", "system name": "FAAH (Rattus norvegicus)", "quantity": "inhibition at 0.1 µM", "units symbol": "%", "value measured": 41}

*Q* Report inhibition at 0.1 µM, nothing else, for this molecule: `COCc1ncc2c(n1)n(C)c(=O)n2C(=O)N1CC[C@@H](Oc2cccc(C)c2)C1`
*A* 46

*Q* Give the measured inhibition at 0.1 µM for `COc1ccccc1-c1ncc2c(n1)n(C)c(=O)n2C(=O)N1CCCC1`
*A* 67

*Q* Please indicate inhibition at 0.1 µM recorded for `Cc1cccc(OCCCc2ncc3c(n2)n(C(=O)N(C)C)c(=O)n3C)c1`
*A* 76

*Q* Return value of inhibition at 0.1 µM for input `Cn1c(=O)n(C(=O)N2CCCC2)c2cnc(Cc3cc(F)ccc3F)nc21` , no commentary.
*A* 99

*Q* Provide measured inhibition at 0.1 µM value, entry: `Cn1c(=O)n(C(=O)N2CCN(c3ccc(Cl)cc3)CC2)c2cnc(-c3ccccc3)nc21`
*A* 99

*Q* Answer with the recorded inhibition at 0.1 µM for the molecule listed here: `CCOc1ccc(N2CCN(C(=O)n3c(=O)n(C)c4nc(-c5ccncc5)ncc43)CC2)cc1`
*A* 102

*Q* For the molecule `COCCCc1ncc2c(n1)n(C)c(=O)n2C(=O)N1CC(c2cccc(C(F)(F)F)c2)C1` , give its reported inhibition at 0.1 µM.
*A* 93

*Q* Dear colleague, please send me the reported inhibition at 0.1 µM for `CN(C(=O)n1c(=O)n(C)c2nc(-c3ccccc3)ncc21)c1ccccc1` when you can.
*A* 76

*Q* Hello, please tell me recorded inhibition at 0.1 µM for this one: `Cn1c(=O)n(C(=O)N2CCC2)c2nc(CCc3ccc(C(F)F)cc3)ncc21`
*A* 110

*Q* Check the records and state inhibition at 0.1 µM for `CCOc1ccc(N2CCN(C(=O)n3c(=O)n(C)c4nc(-c5ccccc5)ncc43)CC2)cc1`
*A* 99

*Q* Using the record for `CN(C)C(=O)n1c(=O)n(C)c2cnc(CCc3cccc(OC(F)(F)F)c3)nc21` , state its measured inhibition at 0.1 µM.
*A* 100

*Q* Report inhibition at 0.1 µM for `CN(C)C(=O)n1c(=O)n(C)c2cnc(-c3cccc(Cl)c3)nc21`
*A* 118

*Q* Answer with the recorded inhibition at 0.1 µM of `CCN(C)C(=O)n1c(=O)n(C)c2nc(Cc3cccc(F)c3)ncc21` only.
*A* 100

* * *

The molecules listed here are annotated with their pIC50.
- system name: FAAH (Rattus norvegicus, UniProt P97612)
- Construct: Preparation of Rat Brain Membranes Preparations (FAAH Enzyme Solution); from tissue; host or cells: rat cerebrum (brain membrane preparation)
- Sequence (P97612 1-579): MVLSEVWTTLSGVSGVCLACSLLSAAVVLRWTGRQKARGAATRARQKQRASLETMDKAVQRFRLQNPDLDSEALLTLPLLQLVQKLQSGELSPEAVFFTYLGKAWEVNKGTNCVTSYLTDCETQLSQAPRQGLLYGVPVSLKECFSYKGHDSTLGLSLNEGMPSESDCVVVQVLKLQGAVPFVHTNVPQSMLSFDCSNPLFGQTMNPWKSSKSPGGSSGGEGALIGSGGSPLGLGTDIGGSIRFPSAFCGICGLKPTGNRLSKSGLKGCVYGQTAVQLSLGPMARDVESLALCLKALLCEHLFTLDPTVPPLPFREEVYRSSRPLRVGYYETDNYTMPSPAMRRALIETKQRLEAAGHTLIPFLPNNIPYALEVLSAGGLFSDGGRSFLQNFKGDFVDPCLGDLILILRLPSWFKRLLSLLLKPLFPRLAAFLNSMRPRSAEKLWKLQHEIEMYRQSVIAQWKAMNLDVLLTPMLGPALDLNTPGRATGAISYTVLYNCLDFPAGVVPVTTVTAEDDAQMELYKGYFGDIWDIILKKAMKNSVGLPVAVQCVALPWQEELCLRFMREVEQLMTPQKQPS
- protocol: Determination of FAAH inhibitory activity in rat (rat brain membrane preparations, [3H]-anandamide hydrolysis)
- Format: biochemical
- cond: rat brain membrane preparations; test substance 0.1 nM to 1 μM; read-out: FAAH Inhibition IC50
# pIC50 is unitless: minus log10 of the molar concentration; print number only

Examples with answers:
{"structure": "Cn1c(=O)n(C(=O)N2CCCC2)c2nc(/C=C/c3cccc(C(F)(F)F)c3)ncc21", "system name": "FAAH (Rattus norvegicus, UniProt P97612)", "pIC50": 7.96}
{"structure": "COc1cccc(-c2ncc3c(n2)n(C)c(=O)n3C(=O)N2CCN(c3cccc(F)c3)CC2)c1", "system name": "FAAH (Rattus norvegicus, UniProt P97612)", "pIC50": 8.30}
{"structure": "CN(C)C(=O)n1c(=O)n(C)c2cnc(-c3ccc(C(F)(F)F)cc3)nc21", "system name": "FAAH (Rattus norvegicus, UniProt P97612)", "pIC50": 7.28}
{"structure": "Cn1c(=O)n(C(=O)N2CCCC2)c2nc(-c3ccc(C(F)(F)F)cc3)ncc21", "system name": "FAAH (Rattus norvegicus, UniProt P97612)", "pIC50": 7.41}
{"structure": "CCN(C)C(=O)n1c(=O)n(C)c2cnc(CCc3cccc(OC)c3)nc21", "system name": "FAAH (Rattus norvegicus, UniProt P97612)", "pIC50": 7.17}
{"structure": "CCOc1ccc(-c2ncc3c(n2)n(C(=O)N2CCC2)c(=O)n3C)cc1", "system name": "FAAH (Rattus norvegicus, UniProt P97612)", "pIC50": 7.21}
{"structure": "Cn1c(=O)n(C(=O)N2CCC2)c2cnc(Cc3ccc(Cl)cc3)nc21", "system name": "FAAH (Rattus norvegicus, UniProt P97612)", "pIC50": 7.51}

Let us move to another entry and its pIC50.
*Q* Kindly indicate its recorded pIC50. Item: `CCn1c(=O)n(C(=O)N2CCCC2)c2cnc(-c3ccccc3)nc21`
*A* 8.15

Values compiled from patent US8735406B2.
